System: Hs-578T
Assay: NCI tumour cell line growth inhibition, 48 h
The source made the active and inactive calls. Cut-off read from the data, not from the text of the source: active = GI50 up to about 1.1 µM and inactive = higher.
# valid calls are active, inactive; nothing else

Before answering, review these 5 worked examples.
Request: Hi, do you know how c1c[nH]c(C23C4C5C6C4C2C6C53)n1 (stereo not drawn) came out in this test?
Result: inactive

Request: And then O=C(c1ccccc1)N(C(=O)c1ccccc1)c1nc(SCc2ccccc2)ns1 , what is it?
Result: inactive

Request: And then O=C1C(Br)=CC2(C=C1Br)CCNC1=C2C(=O)c2[nH]cnc2C1=O , what is it?
Result: inactive

Request: And then Nc1nc(=O)c2c([nH]1)NCC(CCNc1ccc(C(=O)O)cc1)N2 (stereo not drawn) , what is it?
Result: inactive

Request: And then CCC(=O)O[C@H]1CC[C@H]2[C@@H]3CCC4=C/C(=N/OC(=O)c5cccc6c(=O)c7ccccc7[nH]c56)CC[C@]4(C)[C@H]3CC[C@]12C , what is it?
Result: inactive

--- query ---
Request: Hi, do you know how Cc1nn(C(=O)c2ccccc2O)c2c1C(c1ccc(O)cc1O)SC(=N)N2 (stereo not drawn) came out in this test?
Result: inactive

* * *

Overview of reported GI50 across a group of molecules:
Test system: SR
Test: NCI tumour cell line growth inhibition, 48 h
The source made the active and inactive calls. Cut-off read from the data, not from the text of the source: active = GI50 up to about 1.1 µM and inactive = higher.

Request: Which GI50 is listed for C=CCP(=O)(CC=C)C(Cl)Cl ?
Result: > 100 µM (inactive)

Request: And then COc1ccc(-c2nc3ncccn3c2-c2ccc([S+](C)[O-])cc2)cc1 (stereo not given) , what is it?
Result: 50.7 µM (inactive)

Request: And then O=C1c2ccccc2-c2nc3ccncc3n21 , what is it?
Result: > 100 µM (inactive)

Request: And then COc1cc2c(cc1OCCCC(=O)Nc1cc(C(=O)Nc3cc(C(=O)NCCCN(C)C)n(C)n3)n(C)n1)N=CC1CCCN1C2=O (stereo not given) , what is it?
Result: 12.9 µM (inactive)

Next:
Request: Which GI50 is listed for CN(CCCNC(=O)c1cn(C)c2c1Cc1ccccc1-2)CCCNC(=O)c1cn(C)c2c1Cc1ccccc1-2 ?
Result: 1.45 µM (inactive)

* * *

Tested on: MDA-MB-435
Experiment: NCI tumour cell line growth inhibition, 48 h
The source made the active and inactive calls. Rule as the data show it: active = GI50 up to about 1.1 µM and inactive = higher.
measurement-name: GI50

Worked examples, 3 molecules total:
Request: Which GI50 is listed for CCCCCCCCCCCCCCC[C@@H](O)C[N+](C)(C)CCO ?
Result: 4.84 µM (inactive)

Request: And then CCOc1nc2sc3c(c2c(=O)n1CCSSCCn1c(OCC)nc2sc4c(c2c1=O)CCCC4)CCCC3 , what is it?
Result: > 100 µM (inactive)

Request: And then O=C1C(C(c2ccc([N+](=O)[O-])cc2)N2CCOCC2)=C(O)C(c2ccccc2)N1c1ccccc1 (centres undefined) , what is it?
Result: > 10 µM (inactive)

Consider the record given below.
Request: Which GI50 is listed for NC1=C(N2CCOCC2)C(=O)NC2=N/C(=C\c3ccccc3)C(=O)N21 ?
Result: > 100 µM (inactive)

* * *

System: M14
Assay: NCI tumour cell line growth inhibition, 48 h
Active and inactive are the calls of the source. Cut-off read from the data, not from the text of the source: active = GI50 up to about 1.1 µM and inactive = higher.
# valid calls are active, inactive; nothing else

Before answering, review these 4 worked examples.
Request: Hi, do you know how CCCNc1[nH]c(C(=O)c2ccccc2)c(N)c1C(=S)Nc1ccccc1 came out in this test?
Result: inactive

Request: And then CC(C)c1nc(Cl)nc(Cl)c1Cl , what is it?
Result: active

Request: And then CC1CCP(=O)(c2ccccc2)CC1 (configuration not stated) , what is it?
Result: inactive

Request: And then C=CCN1CCC23c4c5ccc(O)c4OC2C(=NN=C2CCC4(O)C6Cc7ccc(O)c8c7C4(CCN6CC=C)C2O8)CCC3(O)C1C5 (configuration not stated) , what is it?
Result: inactive

--- query ---
Request: Hi, do you know how CC(=O)C(C)(C)CCC(C)(C)C(C)=O came out in this test?
Result: inactive
